Provenance of the data: ChEMBL document CHEMBL1201862

- System: HOP-62
- measurementNotes: NCI tumour cell line growth inhibition, 48 h
Activity calls are given as the source filed them. Cut-off read from the data, not from the text of the source: active = GI50 up to about 1.1 µM and inactive = higher.
Assignment: determine reported GI50 for the given compounds.

> print(dat)
                                   compound  observedproperty   experimentalvalue
1  O=c1[nH]nc(Cn2c3ccc(Br)cc3c3nc4ccccc4nc32)n1C1CCCCC1              GI50  17.7 µM (inactive)

Quick request: GI50 for each listed item, please.
1. CCOC1OCCCC1Br (centres undefined)
2. CC(C#N)N(CCc1ccccc1)C(=O)c1ccccc1 (centres undefined)
3. CNC1=C(C)C(=O)C(C)=C(C(C)(C)CC(=O)n2cc(F)c(=O)[nH]c2=O)C1=O
4. O=C(/C=C/c1ccc(O)c(O)c1)OCCCOC(=O)/C=C/c1ccc(O)c(O)c1
5. CCCCCCCCCC(O)CC(=O)c1c(O)cccc1O (centres undefined)

Result:
1: > 100 µM (inactive); 2: > 100 µM (inactive); 3: 3.97 µM (inactive); 4: 11.7 µM (inactive); 5: 16 µM (inactive)

For every record below, what is its GI50?
1. Cc1cc2cc3c(Cl)c(CCCl)c(C)nc3cc2c(Cl)c1CCCl
2. COc1ccccc1/C=C(\C#N)C(=O)c1ccccc1
3. CC(=O)Oc1ccc2c(=O)c(C(C)=O)coc2c1
4. CCOC(=O)c1cc(=O)oc2c1N(C)c1ncccc1N2
5. CCCCC1(N=[N+]=[N-])C(=O)C2C=CC=C3c4ccccc4N(C1=O)C32 (centres undefined)
6. CC(C)(C)C(=O)Nc1cccc(-c2ccc[nH]2)n1

Result:
["13.8 µM (inactive)", "> 100 µM (inactive)", "> 100 µM (inactive)", "> 100 µM (inactive)", "27.1 µM (inactive)", "> 100 µM (inactive)"]

State recorded GI50 for all listed compounds.
1. CCOC(=O)NC(OC)(C(F)(F)F)C(F)(F)F
2. CCOC(=O)/C(=C/c1cn(C(C)=O)c2ccccc12)P(=O)(OC)OC

Result:
["> 100 µM (inactive)", "63.4 µM (inactive)"]

###

Hi there, I'd appreciate the recorded GI50 for every entry that follows.
- Test system: RXF 393
- measurementNotes: NCI tumour cell line growth inhibition, 48 h
Activity calls are given as the source filed them. Rule as the data show it: active = GI50 up to about 1.1 µM and inactive = higher.

Known GI50 results, listed for orientation:
> print(dat)
                                   compound  observedproperty    experimentalvalue
1       CCN(CC)CCOc1ccc(N2Cc3ccccc3C2=O)cc1              GI50   > 10 µM (inactive)
2  C[N+]1(CCC(=O)c2ccccc2)CCC2CCC(C2)C1 (centres undefined)              GI50  > 100 µM (inactive)
3        Nn1c(=O)[nH]c2ncn(Cc3ccccc3)c2c1=O              GI50  > 100 µM (inactive)

Query: Consider the compound CCCSc1cc(Cl)c(C)cc1S(=O)(=O)n1ccnc1O and give its measured GI50.
Result: > 100 µM (inactive)
